The values you see were collected from ChEMBL document CHEMBL2034831.

The following compounds are shown together with reported IC50 values.
Test system: HepG2
test_details: Cytotoxicity against human HepG2 cells after 3 days by MTT assay
Type: functional, cell-based
measurement_context: HepG2, 72 h

Completed entries (count: 5):
given_smiles: Cc1ccc2nc(C)n(NC(=O)/C(C#N)=C/c3ccc(O)cc3)c(=O)c2c1
IC50: 13 µM
--
given_smiles: Cc1ccc2nc(C)n(NC(=O)c3sc(N)c(C#N)c3N)c(=O)c2c1
IC50: 15 µM
--
given_smiles: Cc1ccc2nc(C)n(NC(=O)c3cc4ccccc4oc3=N)c(=O)c2c1
IC50: 23 µM
--
given_smiles: Cc1ccc2nc(C)n(NC(=O)c3sc(=S)n(Cc4ccccc4)c3N)c(=O)c2c1
IC50: 32 µM
--
given_smiles: Cc1ccc2nc(C)n(NC(=O)/C(C#N)=C/c3ccc(Cl)cc3)c(=O)c2c1
IC50: 9 µM

Input: Specify measured IC50 for Cc1ccc2nc(C)n(NC(=O)/C(C#N)=C/c3ccc([N+](=O)[O-])cc3)c(=O)c2c1 .
Output: 10 µM

Input: Specify measured IC50 for Cc1ccc2nc(C)n(NC(=O)/C(C#N)=C/c3ccc(O)c(O)c3)c(=O)c2c1 .
Output: 8 µM

Input: Specify measured IC50 for Cc1ccc2nc(C)n(NC(=O)/C(C#N)=N/Nc3ccc(S(N)(=O)=O)cc3)c(=O)c2c1 .
Output: 9 µM

Input: Specify measured IC50 for CCOC(=O)c1c(N)sc(C(=O)Nn2c(C)nc3ccc(C)cc3c2=O)c1N .
Output: 22 µM

Input: Specify measured IC50 for CCOC(=O)c1c(-c2ccccc2)c(C#N)c(=O)n(-n2c(C)nc3ccc(C)cc3c2=O)c1N .
Output: 52 µM

Input: Specify measured IC50 for Cc1ccc2nc(C)n(NC(=O)/C(C#N)=C/c3ccccc3)c(=O)c2c1 .
Output: 14 µM

Input: Specify measured IC50 for Cc1ccc2nc(C)n(-n3c(N)c(C#N)c(-c4ccccc4)c(C#N)c3=O)c(=O)c2c1 .
Output: 10 µM

----------
System: MCF7
test_details: Cytotoxicity against human MCF7 cells after 3 days by MTT assay
Type: functional, cell-based
measurement_context: MCF7, 72 h
Strictly below 10 µM in IC50: T. Otherwise: F.

given_smiles: Cc1ccc2nc(C)n(NC(=O)/C(C#N)=N/Nc3ccccc3)c(=O)c2c1
class_label: F

given_smiles: Cc1ccc2nc(C)n(NC(=O)/C(C#N)=C/c3ccc(Cl)cc3)c(=O)c2c1
class_label: F

given_smiles: Cc1ccc2nc(C)n(NC(=O)/C(C#N)=C/c3ccccc3)c(=O)c2c1
class_label: T

Input: State whether 10 µM exceeds IC50 recorded for Cc1ccc2nc(C)n(-n3c(O)cc(N)c(C#N)c3=O)c(=O)c2c1 .
Output: F

Input: State whether 10 µM exceeds IC50 recorded for Cc1ccc2nc(C)n(NC(=O)/C(C#N)=C/c3ccc(O)c(O)c3)c(=O)c2c1 .
Output: T

Input: State whether 10 µM exceeds IC50 recorded for Cc1ccc2nc(C)n(NC(=O)c3sc4c(c3N)CCCC4)c(=O)c2c1 .
Output: F

Input: State whether 10 µM exceeds IC50 recorded for Cc1ccc2nc(C)n(NC(=O)/C(C#N)=N/Nc3ccc(S(N)(=O)=O)cc3)c(=O)c2c1 .
Output: T

Input: State whether 10 µM exceeds IC50 recorded for Cc1ccc2nc(C)n(NC(=O)CC#N)c(=O)c2c1 .
Output: F

----------
System: MCF7
test_details: Cytotoxicity against human MCF7 cells after 3 days by MTT assay
Format: functional, cell-based
measurement_context: MCF7, 72 h
The following molecules are shown together with reported pIC50 values.
Quick note: pIC50 values are minus log10 of concentrations in mol/L.

Input: Specify measured pIC50 for Cc1ccc2nc(C)n(-n3c(N)c(C#N)c(-c4ccccc4)c(C#N)c3=O)c(=O)c2c1 .
Output: 5.10

Input: Specify measured pIC50 for CCOC(=O)c1c(-c2ccccc2)c(C#N)c(=O)n(-n2c(C)nc3ccc(C)cc3c2=O)c1N .
Output: 4.77

Input: Specify measured pIC50 for Cc1ccc2nc(C)n(NC(=O)/C(C#N)=C/c3ccc(O)cc3)c(=O)c2c1 .
Output: 4.85

Input: Specify measured pIC50 for Cc1ccc2nc(C)n(NC(=O)c3cc4ccccc4oc3=N)c(=O)c2c1 .
Output: 4.77

Input: Specify measured pIC50 for Cc1ccc2nc(C)n(NC(=O)c3sc(=S)n(-c4ccccc4)c3N)c(=O)c2c1 .
Output: 4.89

Input: Specify measured pIC50 for Cc1ccc2nc(C)n(NC(=O)/C(C#N)=C/c3cccc(O)c3)c(=O)c2c1 .
Output: 4.82

----------
System: HeLa
test_details: Cytotoxicity against human HeLa cells after 3 days by MTT assay
Format: functional, cell-based
measurement_context: 72 h
reported_endpoint: log10(IC50) (log10 of the value in µM)
Friendly reminder: values = log10 of IC50, unit µM.

compound: CCOC(=O)c1c(-c2ccccc2)c(C#N)c(=O)n(-n2c(C)nc3ccc(C)cc3c2=O)c1N
log10(IC50): 1.32
--
compound: Cc1ccc2nc(C)n(NC(=O)c3sc(=S)n(-c4ccccc4)c3N)c(=O)c2c1
log10(IC50): 1.54
--
compound: Cc1ccc2nc(C)n(NC(=O)/C(C#N)=C/c3ccc(Cl)cc3)c(=O)c2c1
log10(IC50): 1.08
--
compound: Cc1ccc2nc(C)n(-n3c(N)cc(N)c(C#N)c3=O)c(=O)c2c1
log10(IC50): 1.18
--
compound: CCOC(=O)c1c(N)sc(C(=O)Nn2c(C)nc3ccc(C)cc3c2=O)c1N
log10(IC50): 1.36

Input: Specify the recorded log10(IC50) for Cc1ccc2nc(C)n(NC(=O)CC#N)c(=O)c2c1 , system: HeLa.
Output: 1.48

Input: Specify the recorded log10(IC50) for Cc1ccc2nc(C)n(-n3c(O)cc(N)c(C#N)c3=O)c(=O)c2c1 , system: HeLa.
Output: 1.65

Input: Specify the recorded log10(IC50) for Cc1ccc2nc(C)n(NC(=O)/C(C#N)=C/c3ccc([N+](=O)[O-])cc3)c(=O)c2c1 , system: HeLa.
Output: 1.18

Input: Specify the recorded log10(IC50) for Cc1ccc2nc(C)n(NC(=O)/C(C#N)=N/Nc3ccccc3)c(=O)c2c1 , system: HeLa.
Output: 1.90

Input: Specify the recorded log10(IC50) for Cc1ccc2nc(C)n(NC(=O)/C(C#N)=C/c3ccc(O)cc3)c(=O)c2c1 , system: HeLa.
Output: 1.11

Input: Specify the recorded log10(IC50) for Cc1ccc2nc(C)n(NC(=O)/C(C#N)=C/c3cccc(O)c3)c(=O)c2c1 , system: HeLa.
Output: 1.15

Input: Specify the recorded log10(IC50) for Cc1ccc(/C=C(\C#N)C(=O)Nn2c(C)nc3ccc(C)cc3c2=O)cc1 , system: HeLa.
Output: 0.95

Input: Specify the recorded log10(IC50) for Cc1ccc2nc(C)n(NC(=O)/C(C#N)=N/Nc3ccc(S(N)(=O)=O)cc3)c(=O)c2c1 , system: HeLa.
Output: 1.08

Input: Specify the recorded log10(IC50) for COc1cccc2c1C(=O)c1c(O)c3c(c(O)c1C2=O)C[C@@](O)(C(=O)CO)C[C@@H]3O[C@H]1C[C@H](N)[C@H](O)[C@H](C)O1 [DOXORUBICIN] , system: HeLa.
Output: 0.90

----------
System: MCF7
test_details: Cytotoxicity against human MCF7 cells after 3 days by MTT assay
Type: functional, cell-based
measurement_context: MCF7, 72 h
The following compounds are shown together with reported pIC50 values.
Quick note: pIC50 values are minus log10 of concentrations in mol/L.

given_smiles: Cc1ccc2nc(C)n(NC(=O)c3sc(=S)n(Cc4ccccc4)c3N)c(=O)c2c1
reported_endpoint: pIC50
recorded_measurement: 5.00
//
given_smiles: Cc1ccc2nc(C)n(NC(=O)c3sc(N)c(C#N)c3N)c(=O)c2c1
reported_endpoint: pIC50
recorded_measurement: 5.00

From here, focus on the item given below.
Input: Specify measured pIC50 for Cc1ccc(/C=C(\C#N)C(=O)Nn2c(C)nc3ccc(C)cc3c2=O)cc1 .
Output: 5.00

----------
The following molecules are shown together with reported IC50 values.
Tested on: MCF7
test_details: Cytotoxicity against human MCF7 cells after 3 days by MTT assay
Type: functional, cell-based
measurement_context: MCF7, 72 h
Record the value in µM, omitting the unit from your answer.

Completed entries (count: 2):
given_smiles: CCOC(=O)c1c(N)sc(C(=O)Nn2c(C)nc3ccc(C)cc3c2=O)c1N
display_unit: µM
IC50: 16
--
given_smiles: Cc1ccc2nc(C)n(-n3c(N)cc(N)c(C#N)c3=O)c(=O)c2c1
display_unit: µM
IC50: 10

From here, focus on the item given below.
Input: Specify measured IC50 for Cc1ccc2nc(C)n(NC(=O)/C(C#N)=C/c3ccc([N+](=O)[O-])cc3)c(=O)c2c1 .
Output: 12
